Biological target: T1, recombinant human TL1A (human, UniProt O95150 71-251)
T1 chain: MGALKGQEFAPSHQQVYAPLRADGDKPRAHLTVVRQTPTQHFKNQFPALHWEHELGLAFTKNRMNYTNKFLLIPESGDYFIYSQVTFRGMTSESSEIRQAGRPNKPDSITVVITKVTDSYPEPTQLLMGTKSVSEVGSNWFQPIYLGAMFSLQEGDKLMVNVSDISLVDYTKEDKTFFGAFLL
Assay: cell-based or functional assay
MEASUREMENT_NAME: Whole blood IFNγ assay IC50 (pM)
Give bare numbers, in pM.

Would you please look over these solved cases?
TL1A-0308 (antibody, human IgG1, kappa, V domains shown, human IgG1 effector-function-minimized/kappa) VH: QVQLVQSGAEVKKPGASVKVSCKASGYDFTYYGIGWVRQAPGQGLEWMGWISTYNTNTHYAPSLQGRVTMTTDTSTSTAYMELRSLRSDDTAVYYCARESYYGSGAFRGGMDVWGQGTTVTVSS VL: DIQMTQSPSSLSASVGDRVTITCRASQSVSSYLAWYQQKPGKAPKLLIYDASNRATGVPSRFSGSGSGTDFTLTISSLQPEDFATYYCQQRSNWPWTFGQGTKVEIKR :: 810
TL1A-0042 (antibody, human IgG1, kappa, V domains shown, parental heavy chain with IGKV1-39*01 light chain; human IgG1 effector-function-minimized/kappa) VH: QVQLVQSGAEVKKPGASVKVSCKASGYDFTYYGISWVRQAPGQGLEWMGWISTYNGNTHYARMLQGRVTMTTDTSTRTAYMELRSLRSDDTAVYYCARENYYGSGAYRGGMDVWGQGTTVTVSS VL: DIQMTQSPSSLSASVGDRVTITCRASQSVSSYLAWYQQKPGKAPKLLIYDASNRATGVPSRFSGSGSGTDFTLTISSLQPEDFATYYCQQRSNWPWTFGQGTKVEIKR :: 748

Fill in Whole blood IFNγ assay IC50 for each of the 3 binders listed.
1. TL1A-0262 (antibody, human IgG1, kappa, V domains shown, human IgG1 effector-function-minimized/kappa) VH: QVQLVQSGAEVKKPGASVKVSCKASGYDYTYYGISWVRQAPGQGLEWMGWISTYNTGTHYAQKLQGRVTMTTDTSTSTAYMELRSLRSDDTAVYYCARESYYGSGAFRGGMDVWGQGTTVTVSS VL: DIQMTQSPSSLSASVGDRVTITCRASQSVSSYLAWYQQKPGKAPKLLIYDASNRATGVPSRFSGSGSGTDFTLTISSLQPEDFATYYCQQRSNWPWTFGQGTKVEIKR
2. TL1A-0261 (antibody, human IgG1, kappa, V domains shown, human IgG1 effector-function-minimized/kappa) VH: QVQLVQSGAEVKKPGASVKVSCKASGYDYTYYGISWVRQAPGQGLEWMGWISTYNTGTHYAPSLQGRVTMTTDTSTSTAYMELRSLRSDDTAVYYCARESYYGSGAHRGGMDVWGQGTTVTVSS VL: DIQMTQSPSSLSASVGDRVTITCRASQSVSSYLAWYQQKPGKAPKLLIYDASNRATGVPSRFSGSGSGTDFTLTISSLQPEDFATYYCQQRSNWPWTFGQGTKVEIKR
3. TL1A-0278 (antibody, human IgG1, kappa, V domains shown, human IgG1 effector-function-minimized/kappa) VH: QVQLVQSGAEVKKPGASVKVSCKASGYDFSYYGISWVRQAPGQGLEWMGWISTYNTVTHYAPSLQGRVTMTTDTSTSTAYMELRSLRSDDTAVYYCARESYYGSGAFRGGMDVWGQGTTVTVSS VL: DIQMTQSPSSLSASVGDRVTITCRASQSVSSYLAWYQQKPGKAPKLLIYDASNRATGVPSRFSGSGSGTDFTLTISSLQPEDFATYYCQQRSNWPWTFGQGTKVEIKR

1: 1030; 2: 923; 3: 820
